target: Discoidin domain-containing receptor 2 (Homo sapiens, UniProt Q16832)
property.name: pKd
As a rule, pKd stands for the negative log10 of the concentration, concentration in M.

CC(C)(C)c1cc(NC(=O)Nc2nc(CCOCc3ccc(F)cc3)cs2)n(-c2ccc(CC(=O)O)cc2)n1 6.37
CC(C)(C)c1cc(NC(=O)Nc2ccc(Cl)cc2)n(-c2cccc(N)c2)n1 7.82

Qu. What measured pKd goes with CCC(=O)Nc1cccc(-n2nc(C(C)(C)C)cc2NC(=O)Nc2ccc(OCCN3CCOCC3)c3ccccc23)c1 ?
Ans. 7.52

Qu. What value of pKd has been reported for the following compound? Cc1ccc(-n2nc(C(C)(C)C)cc2NC(=O)Nc2nccs2)cc1
Ans. 6.15

* * *

biological target: Discoidin domain-containing receptor 2 (Homo sapiens, UniProt Q16832, T654M); assay: Inhibition of DDR2 T654M mutant (unknown origin) preincubated for 30 mins before substrate addition by FRET assay
Lab note: anything with IC50 below 80 nM is marked rule met; values at 80 nM or higher are marked rule not met.

# example entries with known answers
CC(C)(C)c1cc(NC(=O)Nc2ccc(Cl)cc2)n(-c2cccc([N+](=O)[O-])c2)n1 rule not met
CC(C)(C)c1cc(NC(=O)Nc2cccc3ccccc23)n(-c2cccc([N+](=O)[O-])c2)n1 rule not met
CC(C)(C)c1cc(NC(=O)Nc2nc(CCOCc3ccccc3)cs2)n(-c2ccc(CC(=O)O)cc2)n1 rule not met
O=C(O)Cc1ccc(-n2nc(C3CCCC3)cc2NC(=O)Nc2nc(CCOCc3ccccc3)cs2)cc1 rule not met
CC(C)(C)c1cc(NC(=O)Nc2nc(CCOCc3ccc(F)cc3)cs2)n(-c2ccc(CC(=O)O)cc2)n1 rule met

Qu. # TODO verify IC50 < 80 nM strictly for this compound: Cc1ccc(-n2nc(C(C)(C)C)cc2NC(=O)Nc2cccc3ccccc23)cc1
Ans. rule not met

Qu. Please indicate whether the reported IC50 of Nc1c(-c2ccccc2)oc2ccccc2c1=O is strictly below 80 nM.
Ans. rule not met

Qu. # TODO verify IC50 < 80 nM strictly for this compound: CC(C)(C)c1cc(NC(=O)Nc2cccc(Nc3ncnc4ccccc34)c2)n(-c2cccc(N)c2)n1
Ans. rule met

Qu. Identify whether the compound CCC(=O)Nc1cccc(-n2nc(C(C)(C)C)cc2NC(=O)Nc2ccc(OCCN3CCOCC3)c3ccccc23)c1 records IC50 below 80 nM.
Ans. rule not met

* * *

Target: Discoidin domain-containing receptor 2 (Homo sapiens, UniProt Q16832)
Sequence (Q16832 whole entry): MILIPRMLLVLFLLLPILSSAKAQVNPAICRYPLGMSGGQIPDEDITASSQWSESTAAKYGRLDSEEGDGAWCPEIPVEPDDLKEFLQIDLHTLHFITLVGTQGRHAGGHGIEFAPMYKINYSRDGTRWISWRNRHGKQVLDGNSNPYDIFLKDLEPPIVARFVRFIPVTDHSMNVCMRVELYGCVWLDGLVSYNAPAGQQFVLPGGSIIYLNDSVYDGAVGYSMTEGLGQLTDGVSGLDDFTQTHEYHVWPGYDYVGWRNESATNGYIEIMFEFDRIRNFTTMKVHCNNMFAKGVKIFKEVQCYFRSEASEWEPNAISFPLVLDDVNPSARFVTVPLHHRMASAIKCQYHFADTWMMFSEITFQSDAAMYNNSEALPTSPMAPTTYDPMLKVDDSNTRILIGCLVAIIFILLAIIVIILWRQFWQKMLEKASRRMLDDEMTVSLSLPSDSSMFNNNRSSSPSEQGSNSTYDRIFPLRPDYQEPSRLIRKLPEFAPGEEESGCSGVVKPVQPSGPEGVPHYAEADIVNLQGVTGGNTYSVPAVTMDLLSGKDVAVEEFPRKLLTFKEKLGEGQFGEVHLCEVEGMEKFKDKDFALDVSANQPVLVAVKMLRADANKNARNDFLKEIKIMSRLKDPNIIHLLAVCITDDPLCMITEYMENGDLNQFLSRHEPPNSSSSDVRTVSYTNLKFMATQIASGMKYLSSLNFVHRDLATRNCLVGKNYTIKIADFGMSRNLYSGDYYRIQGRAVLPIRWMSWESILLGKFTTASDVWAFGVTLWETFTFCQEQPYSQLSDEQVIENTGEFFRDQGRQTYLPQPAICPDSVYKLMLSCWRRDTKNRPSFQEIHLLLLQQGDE
In this section we review reported pKd values for a set of compounds.
Scale note: pKd = -log10(concentration in M).

Consider the following illustrative entries.
compound	reported
O=C(Nc1ccc(OCCN2CCOCC2)c2ccccc12)c1cc(F)cc(N2CCOCC2)c1	6.04
CC(C)(C)c1cc(NC(=O)Nc2ccc(Cl)cc2)n(-c2cccc([N+](=O)[O-])c2)n1	6.39
NC(=O)c1c(OCc2c(F)cc(Br)cc2F)nsc1NC(=O)NCCCCN1CCCC1 [OSI-632]	6.37

Qu. # input compound: CC(C)(C)c1cc(NC(=O)Nc2nc(CCOCc3ccccc3)cs2)n(-c2ccc(CC(=O)O)cc2)n1 ; wanted: its pKd
Ans. 6.42

Qu. Please give the measured pKd for this compound: CC(C)(C)c1cc(NC(=O)Nc2cccc3ccccc23)n(-c2cccc([N+](=O)[O-])c2)n1
Ans. 6.37

Qu. What value of pKd has been reported for the following compound? Cc1ccc(-n2nc(C(C)(C)C)cc2NC(=O)Nc2cccc3ccccc23)cc1
Ans. 6.60

Qu. Sample Cc1cccc(-n2nc(C(C)(C)C)cc2NC(=O)Nc2ccc(Cl)cc2)c1 — what was its pKd?
Ans. 7.82

Origin of measurements: ChEMBL document CHEMBL3259697
